polymerase ribozyme fitness (log ratio) reference
B1: TPR t1 (parent)
chain: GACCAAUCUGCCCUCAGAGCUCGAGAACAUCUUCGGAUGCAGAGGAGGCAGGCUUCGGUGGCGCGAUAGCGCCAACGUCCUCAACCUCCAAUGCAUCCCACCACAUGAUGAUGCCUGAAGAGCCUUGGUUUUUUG

Variants of: B1
experimental-details: polymerase ribozyme fitness, log enrichment relative to wild type (log ratio); higher = more active; in vitro selection for triplet polymerase activity

Example results:
seq	measured-parameter	meas-value
GACCAAUCUACCCUCAGAGCUCGAGAACAUCUUCGGAUGCAGAGGAGGCAGGCUUCGGUGGCGCGAUAGCGCCAACGUCCUCAACAUCCAAUGCAUCCCACCACAUGAUGAUGCCUGAAGAGCCUUGGUUUUUUG [G10A C86A]	polymerase ribozyme fitness (log ratio)	-0.0637
GACCAAUCUGCCCUCAGAGCUCGAGAACAUCUUCGGAUGCAGAGGAGGCAUGCUUCGGUGGCGCGAUAGCGCCAACGUCCUCAACCUCCAAUGGAUCCCACCACAUGAUGAUGCCUGAAGAGCCUUGGUUUUUUG [G51U C94G]	polymerase ribozyme fitness (log ratio)	-4.19
GACCAAUAUGCCCUCAGAGCUCGAGAACAUCUUCGGAUGCAGAGGAGGCAGGCUUCGGUGGCGCGAUAGCGGCAACGUCCUCAACCUCCAAUGCAUCCCACCACAUGAUGAUGCCUGAAGAGCCUUGGUUUUGUG [C8A C72G U133G]	polymerase ribozyme fitness (log ratio)	0.138
GACCAAUCUGCCCUCAGAGCUCGAGAACAUCUUCGGAUGCAGAGGAGGCAGGCUUCGGUGGCGCGAUAGCGCCAACGUCCUCAACCUCCAAUGCAUCCCACCACAUGAUAAUGCCUGAAGAUCCUUGGUUUUUUG [G110A G122U]	polymerase ribozyme fitness (log ratio)	-1.41
GACCAAUCUGCCCUCAGAGCUCGAGAACAUCUUCGGAUGCAGAAGAGGCAGGCUUCGGUGGCGCGAUAGCGCCAACCUCCUCAACCUCCAAUGCAUCCCACCACAUGAUGAUGCCUGAAGAGCCUUGGUUUUUUG [G44A G77C]	polymerase ribozyme fitness (log ratio)	-0.688
GACCAAUCUGCCCUCAGAGAUCGAGAACAUCUUCGGAUGCAGAGGAGGCAGGCUUCGGUGGCGCGAUAGCGCCAAAGUCCUCAACCUCCAAUGCAUCCCACCACAAGAUGAUGCCUGAAGAGCCUUGGUUUUUUG [C20A C76A U106A]	polymerase ribozyme fitness (log ratio)	-4.96
GACCAAUCUGCCCUCAGAGCUCGAGAAUAUCUUCGGAUGCAGAGGAGGCAGGCUUCGGUGGUGCGAUAGCGCCAACGUCCUCAACCUCCAAUGCAUCCCACCACAUGAUGAUGCCUGAAGAGCCUUGGUUUUUUG [C28U C62U]	polymerase ribozyme fitness (log ratio)	-2.6
GACCAAUCUGCCCUCAGAGCUCGAGAACAUCUUCGGAUGCAGAGGAGGCAGGCUUCGGUGGCGUGAUAGCGCCAACGUCCUCACCCUCCAAUGGAUCCCACCACAUGAUGAUGCCUGAAGAGCCUUGGUUUUUUG [C64U A84C C94G]	polymerase ribozyme fitness (log ratio)	-1.23
GACCAAUCUGCCCUCAGAGCUCGAGAACAUCUUCGGAUGCAGAGCAGGCAGGCUUCGGUGGCGCGAUAGCGCCAACGUCCUUAACCUCCAAUACAUCCCAUCACAUGAUGAUGCCUGAAGAGCCUUGGUUUUUUG [G45C C82U G93A C101U]	polymerase ribozyme fitness (log ratio)	-1.84
GACCAAGCUGCCCUCAGAGCUCGAGAACAUCUUCGGAUGCAGAGGAGGCAGGCUUCGGUGGCGCGAUAGCGCCAACGUCCUCAACCUCCAAUGCAUCCCAACACAUGAUGAUGCCUGAAGAGCCUUGGUUUUUUG [U7G C101A]	polymerase ribozyme fitness (log ratio)	-0.172

# context switch: different variant, same polymerase ribozyme fitness (log ratio)
Suppose we examine the variant GACCAAUCUGCCCUCAGAGCUCGAGAACAUCUUCGGAUGCAGAGGAGGCAGGCUUCGGUGGCGCGAUAGCGCCAACGUCCUCAACCUCCAAUGCAUACCACCACAUGAUGUUGCCUGAAGAGCCUUGGUUUUUUG [C97A A111U] ; what polymerase ribozyme fitness (log ratio) value has been reported? -5.77
